B1: BRF1 (parent)
chain: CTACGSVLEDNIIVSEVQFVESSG

Variants of: B1
Assay: protein stability index of a GFP-peptide fusion (GPS, HEK-293T) (PSI 1-6); higher = more stable;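 note: lentivirally expressed fusions sorted by FACS into six bins by GFP to DsRed ratio, PSI derived from sequencing read proportions per bin multiplied by bin number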
Settings: c terminus: a fixed tail appended
PROPERTY: protein stability index
Respond using a number only.

Known protein stability index results, listed for orientation:
{"RESIDUE CHANGE": "N11L", "protein stability index": 2.98}
{"RESIDUE CHANGE": "S23V", "protein stability index": 2.63}
{"RESIDUE CHANGE": "G24V", "protein stability index": 2.45}
{"RESIDUE CHANGE": "S6Y", "protein stability index": 1.59}
{"RESIDUE CHANGE": "Q18W", "protein stability index": 1.75}
{"RESIDUE CHANGE": "S23H", "protein stability index": 3.24}

Would you kindly look at the next entry?
What measured protein stability index goes with "N11H" ?
2.12
